# Tested On: Ba/F3-KDR-transfected cells (Homo sapiens)
# Construct: BAF3-KDR (MIN IL3) pIC50; other: minus IL3
# Sequence (P35968 whole entry, change not shown): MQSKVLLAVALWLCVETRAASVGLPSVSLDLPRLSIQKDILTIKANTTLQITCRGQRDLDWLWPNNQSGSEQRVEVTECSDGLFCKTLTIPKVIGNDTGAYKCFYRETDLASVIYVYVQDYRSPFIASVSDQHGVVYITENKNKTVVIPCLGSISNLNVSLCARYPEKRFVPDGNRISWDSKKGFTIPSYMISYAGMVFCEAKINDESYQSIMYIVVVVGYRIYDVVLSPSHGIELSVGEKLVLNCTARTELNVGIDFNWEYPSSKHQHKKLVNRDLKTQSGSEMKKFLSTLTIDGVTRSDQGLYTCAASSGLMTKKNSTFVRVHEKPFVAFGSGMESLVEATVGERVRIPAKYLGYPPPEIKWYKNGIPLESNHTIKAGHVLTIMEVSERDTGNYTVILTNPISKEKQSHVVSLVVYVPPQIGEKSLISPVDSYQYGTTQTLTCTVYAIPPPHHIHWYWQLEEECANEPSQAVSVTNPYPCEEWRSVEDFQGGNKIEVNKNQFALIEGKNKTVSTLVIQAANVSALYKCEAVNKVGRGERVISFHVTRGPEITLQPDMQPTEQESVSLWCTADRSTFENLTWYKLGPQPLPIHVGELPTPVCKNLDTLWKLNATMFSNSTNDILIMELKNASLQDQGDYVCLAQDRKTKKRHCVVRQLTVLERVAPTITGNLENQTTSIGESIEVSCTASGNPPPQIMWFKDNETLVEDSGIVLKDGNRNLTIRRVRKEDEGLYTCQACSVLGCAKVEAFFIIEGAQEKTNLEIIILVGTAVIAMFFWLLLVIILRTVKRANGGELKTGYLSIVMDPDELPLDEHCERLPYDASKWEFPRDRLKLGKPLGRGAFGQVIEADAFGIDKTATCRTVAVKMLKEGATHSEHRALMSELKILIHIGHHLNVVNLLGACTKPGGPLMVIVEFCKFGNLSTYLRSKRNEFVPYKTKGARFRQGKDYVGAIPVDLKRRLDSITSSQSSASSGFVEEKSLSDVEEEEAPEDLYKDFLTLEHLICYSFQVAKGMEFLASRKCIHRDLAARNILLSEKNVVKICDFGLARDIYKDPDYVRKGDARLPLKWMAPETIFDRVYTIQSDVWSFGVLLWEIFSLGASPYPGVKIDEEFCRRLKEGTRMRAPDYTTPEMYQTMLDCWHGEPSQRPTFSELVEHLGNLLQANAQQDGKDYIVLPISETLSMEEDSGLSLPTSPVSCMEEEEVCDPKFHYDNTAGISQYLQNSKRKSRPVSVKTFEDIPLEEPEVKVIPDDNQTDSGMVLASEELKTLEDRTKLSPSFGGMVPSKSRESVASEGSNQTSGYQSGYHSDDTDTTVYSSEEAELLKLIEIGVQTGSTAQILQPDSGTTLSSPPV
# Measurement Notes: Ba/F3-KDR (minus IL3) cellular proliferation assay, Alamar Blue
# Assay type: cell-based
Where a name gives a salt, the structure may show the parent alone.
Kindly state BAF3-KDR (MIN IL3) pIC50 for each of the entries shown.

>>> print(df.to_string())
                                   compound                                 tested_on                observable  value_measured
0  COc1cc(OC)c(F)c(N(CC2CCC(=O)N2)c2ccc3ncc(-c4cnn(C)c4)nc3n2)c1F (stereo not drawn) [Compound 48]  Ba/F3-KDR-transfected cells (Homo sapiens)  BAF3-KDR (MIN IL3) pIC50            6.03
1  COc1cc(OC)c(F)c(N(Cc2ncc[nH]2)c2ccc3ncc(-c4ccccc4)nc3n2)c1  Ba/F3-KDR-transfected cells (Homo sapiens)  BAF3-KDR (MIN IL3) pIC50            5.99
2  COc1cc(OC)cc(N(Cc2ncc[nH]2)c2ccc3ncc(-c4cnn(C)c4)nc3n2)c1 [24-sulphate salt]  Ba/F3-KDR-transfected cells (Homo sapiens)  BAF3-KDR (MIN IL3) pIC50            6.15
3  COc1cc(O)c(F)c(N(Cc2ncc[nH]2)c2ccc3ncc(-c4cnn(C)c4)nc3n2)c1  Ba/F3-KDR-transfected cells (Homo sapiens)  BAF3-KDR (MIN IL3) pIC50            5.89
4  COc1ccc(Cl)c(N(CC2CCC(=O)N2)c2ccc3ncc(-c4cnn(C)c4)nc3n2)c1Cl (single isomer, unassigned) [Compound 91]  Ba/F3-KDR-transfected cells (Homo sapiens)  BAF3-KDR (MIN IL3) pIC50              <5

Give measured BAF3-KDR (MIN IL3) pIC50 for every item shown.
1. COc1cc(OC)c(F)c(/N=c2\ccc3ncc(-c4cnn(C)c4)nc3n2CCN)c1F
2. COCC(O)Cn1/c(=N/c2cc(OC)cc(OC)c2F)ccc2ncc(-c3cnn(C)c3)nc21 (single isomer, unassigned)
3. COc1cc(OC)c(F)c(N(CC(O)COC(C)C)c2ccc3ncc(-c4cnn(C)c4)nc3n2)c1F (stereo not drawn) [Compound 62]
4. COc1cc(O)cc(N(Cc2ncc[nH]2)c2ccc3ncc(-c4cnn(C)c4)nc3n2)c1
5. COc1cc(OC)cc(N(Cc2nnc(N)o2)c2ccc3ncc(-c4cnn(C)c4)nc3n2)c1

### Response
[6.07, 6.58, 6.21, 6.40, 5.63]

====

Please go through the items and note down their BAF3-FGFR3 (MIN IL3) pIC50.
# Tested On: Ba/F3-FGFR3-transfected cells (Homo sapiens)
# Construct: BAF3-FGFR3 (MIN IL3) pIC50; other: minus IL3
# Sequence (P22607 whole entry, change not shown): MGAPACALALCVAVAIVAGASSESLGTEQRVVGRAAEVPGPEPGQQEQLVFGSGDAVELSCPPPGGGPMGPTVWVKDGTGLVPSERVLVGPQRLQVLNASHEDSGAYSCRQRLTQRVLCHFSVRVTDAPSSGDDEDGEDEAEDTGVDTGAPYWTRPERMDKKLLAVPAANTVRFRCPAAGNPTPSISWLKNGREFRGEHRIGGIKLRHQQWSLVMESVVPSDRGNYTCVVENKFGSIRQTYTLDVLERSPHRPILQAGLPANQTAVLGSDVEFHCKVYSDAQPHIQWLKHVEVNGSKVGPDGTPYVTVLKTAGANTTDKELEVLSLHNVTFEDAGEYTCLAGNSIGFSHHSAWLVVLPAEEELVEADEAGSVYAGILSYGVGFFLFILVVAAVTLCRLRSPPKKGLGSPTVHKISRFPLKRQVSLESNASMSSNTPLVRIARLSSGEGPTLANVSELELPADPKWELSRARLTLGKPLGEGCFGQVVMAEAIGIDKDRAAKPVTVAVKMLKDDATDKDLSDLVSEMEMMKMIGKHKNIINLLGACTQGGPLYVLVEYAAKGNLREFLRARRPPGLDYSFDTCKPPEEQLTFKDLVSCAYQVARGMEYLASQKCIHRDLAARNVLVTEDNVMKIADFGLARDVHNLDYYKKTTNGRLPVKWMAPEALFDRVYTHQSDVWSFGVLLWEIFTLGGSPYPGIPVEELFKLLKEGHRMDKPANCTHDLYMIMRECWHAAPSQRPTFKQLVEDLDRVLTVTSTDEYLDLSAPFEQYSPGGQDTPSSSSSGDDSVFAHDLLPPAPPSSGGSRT
# Measurement Notes: Ba/F3-FGFR3 (minus IL3) cellular proliferation assay, Alamar Blue
# Type: cell-based
Structures can show the parent of a compound that is named as a salt.

>>> print(df.to_string())
                                   molecule                  observable  value_measured
0  COc1cc(OC)c(F)c(N(Cc2ncc[nH]2)c2ccc3ncc(-c4ccccc4)nc3n2)c1  BAF3-FGFR3 (MIN IL3) pIC50           ~8.13

# per-item lookup of BAF3-FGFR3 (MIN IL3) pIC50; items listed below
1. COc1cc(/N=c2\ccc3ncc(-c4cnn(C)c4)nc3n2Cc2c(C)noc2C)c(F)c(OC)c1
2. COc1cc(OC)cc(N(Cc2ncc[nH]2)c2ccc3ncc(-c4cnn(C)c4)nc3n2)c1 [24-sulphate salt]
3. COc1cc(OC)c(F)c(N(CC2CCC(=O)N2)c2ccc3ncc(-c4cnn(C)c4)nc3n2)c1F (stereo not drawn) [Compound 48]
4. COc1cc(OC)c(F)c(N(Cc2ncc[nH]2)c2ccc3ncc(-c4cnn(C)c4)nc3n2)c1 [Compound 23]
5. COc1cc(OC)c(F)c(N(c2ccc3ncc(-c4cnn(C)c4)nc3n2)C(C)c2ncc[nH]2)c1 (stereo not drawn)

### Response
1. <5.52
2. ~8.15
3. ~7.94
4. ~8.40
5. ~8.54

# batch: return BAF3-FGFR3 (MIN IL3) pIC50 for each of the 3 molecules below
1. COc1cc(OC)cc(N(CCO)c2ccc3ncc(-c4ccncc4)nc3n2)c1
2. COc1cc(OC)c(F)c(N(Cc2cn(S(=O)(=O)N(C)C)cn2)c2ccc3ncc(-c4cnn(C)c4)nc3n2)c1
3. COc1cc(OC)c(F)c(N(Cc2cc[nH]n2)c2ccc3ncc(-c4cnn(C)c4)nc3n2)c1

### Response
1. ~6.7
2. ~7.57
3. ~8.04

====

# Tested On: UniProt:P22607
# Measurement Notes: FGFR3 (enzymatic assay), TR-FRET
# Format: biochemical
# Test Context: read-out: FGFR 3 pIC50 (converted)
Observable: IC50 (nM)
One number for each entry, in nM.

Some solved entries appear below for comparison.
                                   compound       tested_on  value_measured
0  COc1cc(OC)cc(N(Cc2ncc[nH]2)c2ccc3ncc(-c4cn[nH]c4)nc3n2)c1  UniProt:P22607           0.457
1  COc1cc(/N=c2\ccc3ncc(-c4cnn(C)c4)nc3n2CCN2CCOCC2)c(F)c(OC)c1  UniProt:P22607            1.26
2  COc1ccc(Cl)c(N(CC2CCC(=O)N2)c2ccc3ncc(-c4cnn(C)c4)nc3n2)c1Cl (stereo not shown) [Compound 93]  UniProt:P22607            77.6

Hi there! I need IC50 for each item below, if you can.
1. COc1cc(OC)cc(N(Cc2nnco2)c2ccc3ncc(-c4cnn(C)c4)nc3n2)c1
2. COc1cc(OC)c(F)c(N(Cc2c(C)noc2C)c2ccc3ncc(-c4cnn(C)c4)nc3n2)c1
3. COc1cc(OC)cc(N(Cc2ncc[nH]2)c2ccc3ncc(-c4ccncc4)nc3n2)c1
4. COc1cc(OC)cc(N(Cc2n[nH]c(=O)o2)c2ccc3ncc(-c4cnn(C)c4)nc3n2)c1

### Response
1: 3.89; 2: 3.55; 3: 1.62; 4: 4.07

====

Assignment: determine reported IC50 for the given molecules.
# Tested On: FGFR1 (h) (Homo sapiens)
# Sequence (P11362 22-822): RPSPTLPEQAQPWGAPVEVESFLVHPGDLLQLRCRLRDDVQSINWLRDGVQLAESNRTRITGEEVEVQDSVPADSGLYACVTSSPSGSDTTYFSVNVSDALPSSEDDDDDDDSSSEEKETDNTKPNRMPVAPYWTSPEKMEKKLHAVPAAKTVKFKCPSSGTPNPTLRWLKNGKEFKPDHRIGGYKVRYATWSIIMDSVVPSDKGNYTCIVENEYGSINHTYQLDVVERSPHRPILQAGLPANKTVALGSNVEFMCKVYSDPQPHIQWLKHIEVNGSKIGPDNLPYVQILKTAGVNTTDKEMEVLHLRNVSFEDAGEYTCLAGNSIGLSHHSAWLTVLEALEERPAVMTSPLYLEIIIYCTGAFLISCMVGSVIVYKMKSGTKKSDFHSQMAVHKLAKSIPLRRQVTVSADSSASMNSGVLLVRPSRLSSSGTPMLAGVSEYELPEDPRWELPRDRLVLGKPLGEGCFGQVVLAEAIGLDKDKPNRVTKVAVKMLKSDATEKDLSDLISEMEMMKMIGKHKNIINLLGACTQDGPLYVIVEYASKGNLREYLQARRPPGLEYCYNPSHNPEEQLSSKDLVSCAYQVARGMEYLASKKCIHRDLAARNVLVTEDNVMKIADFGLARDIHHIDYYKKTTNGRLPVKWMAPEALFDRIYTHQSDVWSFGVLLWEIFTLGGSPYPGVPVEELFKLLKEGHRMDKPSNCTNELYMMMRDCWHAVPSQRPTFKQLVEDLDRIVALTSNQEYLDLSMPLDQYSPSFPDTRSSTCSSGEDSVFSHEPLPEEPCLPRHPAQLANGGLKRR
# Measurement Notes: FGFR1 (enzymatic assay), TR-FRET
# Assay type: biochemical
# Test Context: average values if tested multiple times, read-out: FGFR 1 pIC50 (converted)
Structures can show the parent of a compound that is named as a salt.
Numbers only, in nM.

                                   molecule  observable  value_measured
0  COc1cc(OC)c(F)c(N(CCO)c2ccc3ncc(-c4cnn(C)c4)nc3n2)c1        IC50           0.724
1  Cn1cc(-c2cnc3ccc(N(Cc4ncc[nH]4)c4cc(F)cc(F)c4)nc3n2)cn1        IC50            19.1
2  COc1cc(OC)c(F)c(/N=c2\ccc3ncc(-c4cnn(C)c4)nc3n2CC2CCC(=O)N2)c1F (stereo not shown) [Compound 193]        IC50            0.55
3  CNCCn1/c(=N/c2c(F)c(OC)cc(OC)c2F)ccc2ncc(-c3cnn(C)c3)nc21        IC50            1.26
4  COc1cc(OC)c(F)c(N(Cc2c[nH]cn2)c2ccc3ncc(-c4cnn(C)c4)nc3n2)c1        IC50           0.363
5  COc1cc(OC)c(F)c(N(Cc2ncc[nH]2)c2ccc3ncc(-c4cnn(Cc5ncc[nH]5)c4)nc3n2)c1        IC50            1.29

# batch size: 6; output IC50 per entry
1. COc1cc(/N=c2\ccc3ncc(-c4cnn(C)c4)nc3n2Cc2cc[nH]n2)c(F)c(OC)c1
2. COc1cc(OC)c(F)c(N(Cc2ncc[nH]2)c2ccc3ncc(-c4cnn(C)c4)nc3n2)c1 [23-Sulfate salt]
3. COc1cc(OC)cc(N(Cc2ncccn2)c2ccc3ncc(-c4cnn(C)c4)nc3n2)c1
4. COc1cc(OC)c(Cl)c(N(CC2CCC(=O)N2)c2ccc3ncc(-c4cnn(C)c4)nc3n2)c1Cl (single isomer, unassigned)
5. COCC(O)CN(c1ccc2ncc(-c3cnn(C)c3)nc2n1)c1cc(OC)cc(OC)c1F (single isomer, unassigned) [Compound 58]
6. COc1cc(OC)cc(N(CC(O)C(F)(F)F)c2ccc3ncc(-c4cnn(C)c4)nc3n2)c1 (stereo not shown) [Compound 8]

### Response
[0.708, 0.589, 1.58, 12.9, 1.35, 1.26]

====

# Tested On: FGFR1 (h) (Homo sapiens)
# Measurement Notes: FGFR1 (enzymatic assay), TR-FRET
# Assay type: biochemical
# Test Context: read-out: FGFR 1 pIC50 (converted)
Strictly below 1 nM in IC50: condition met. Otherwise: condition not met.

Example results:
In [3]: df
Out[3]:
                                   compound     classification
0  COc1cc(OC)c(F)c(N(Cc2ncc[nH]2)c2ccc3ncc(-c4cnn(CC(C)(C)O)c4)nc3n2)c1      condition met
1  COc1ccc(Cl)c(N(CC2CCC(=O)N2)c2ccc3ncc(-c4cnn(C)c4)nc3n2)c1Cl (single isomer, unassigned) [Compound 91]  condition not met
2  COc1cc(/N=c2\ccc3ncc(-c4cnn(C)c4)nc3n2CCN2CCCC2=O)cc(OC)c1  condition not met
3  COc1cc(/N=c2\ccc3ncc(-c4cnn(CC(C)(C)O)c4)nc3n2CC(C)(C)O)c(F)c(OC)c1 (single isomer, unassigned)      condition met
4  COc1cc(OC)cc(N(Cc2ncc[nH]2)c2ccc3ncc(-c4cn[nH]c4)nc3n2)c1      condition met
5  COc1cc(OC)cc(N(CCCN2CCCC2=O)c2ccc3ncc(-c4cnn(C)c4)nc3n2)c1  condition not met
6  COc1cc(OC)cc(N(Cc2nnc(N)o2)c2ccc3ncc(-c4cnn(C)c4)nc3n2)c1  condition not met

Turning now to a further compound:
### Prompt Does the reported IC50 of COc1cc(OC)cc(N(Cc2ncc[nH]2)c2ccc3ncc(-c4ccncc4)nc3n2)c1 stay below 1 nM?
### Response condition not met
